These measurements were taken from ChEMBL document CHEMBL1139928.

assay: Plasma clearance in Beagle dog; assay type: ADME, organism-based, Canis lupus familiaris
assayMetric: clearance (mL/min/kg)
Report the value in mL/min/kg with no unit label.

Worked examples, 2 molecules total:
C/C(=C\S(=O)(=O)N[C@H]1CCN([C@@H](C)C(=O)N2CCOCC2)C1=O)c1ccc(Cl)s1 5.7
C[C@@H](C(=O)N1CCOCC1)N1CC[C@H](NS(=O)(=O)/C=C/c2ccc(Cl)s2)C1=O 4.6

// switching to the query molecule
Problem: Consider the molecule C[C@@H](C(=O)N1CCOCC1)N1CC[C@H](NS(=O)(=O)CCc2ccc(Cl)s2)C1=O and give its measured clearance.
Result: 13

###

assay: Half life in Beagle dog; format: ADME, organism-based, Canis lupus familiaris; settings: in vivo
The following compounds are shown together with reported half-life values.
Please don't drop the unit; write it after the number.

C[C@@H](C(=O)N1CCOCC1)N1CC[C@H](NS(=O)(=O)CCc2ccc(Cl)s2)C1=O 30 min

Problem: Consider the compound C/C(=C\S(=O)(=O)N[C@H]1CCN([C@@H](C)C(=O)N2CCOCC2)C1=O)c1ccc(Cl)s1 and give its measured half-life.
Result: 36 min

###

The following compounds are shown together with reported half-life values.
assay: Half life in Sprague-Dawley rat; type: ADME, organism-based; conditions: in vivo
Please don't drop the unit; write it after the number.

C[C@@H](C(=O)N1CCOCC1)N1CC[C@H](NS(=O)(=O)CCc2ccc(Cl)s2)C1=O 18 min

// switching to the query compound
Problem: Consider the compound C/C(=C\S(=O)(=O)N[C@H]1CCN([C@@H](C)C(=O)N2CCOCC2)C1=O)c1ccc(Cl)s1 and give its measured half-life.
Result: 18 min

###

test: Volume of distribution in Beagle dog; assay type: ADME, organism-based, Canis lupus familiaris; conditions: in vivo, read-out: Vdss
assayMetric: Vd (L/kg)
Report the value in L/kg with no unit label.

Problem: Consider the compound C/C(=C\S(=O)(=O)N[C@H]1CCN([C@@H](C)C(=O)N2CCOCC2)C1=O)c1ccc(Cl)s1 and give its measured Vd.
Result: 0.3

Problem: Same read-out for C[C@@H](C(=O)N1CCOCC1)N1CC[C@H](NS(=O)(=O)CCc2ccc(Cl)s2)C1=O ?
Result: 0.5

Problem: Same read-out for C[C@@H](C(=O)N1CCOCC1)N1CC[C@H](NS(=O)(=O)/C=C/c2ccc(Cl)s2)C1=O ?
Result: 0.4

###

The following compounds are shown together with reported clearance values.
assay: Plasma clearance in Sprague-Dawley rat; assay type: ADME, organism-based
Report the value in mL/min/kg with no unit label.

Worked examples, 2 compounds total:
compound	reportedMeasurement
C/C(=C\S(=O)(=O)N[C@H]1CCN([C@@H](C)C(=O)N2CCOCC2)C1=O)c1ccc(Cl)s1	21
C[C@@H](C(=O)N1CCOCC1)N1CC[C@H](NS(=O)(=O)CCc2ccc(Cl)s2)C1=O	28

// switching to the query compound
Problem: Consider the compound C[C@@H](C(=O)N1CCOCC1)N1CC[C@H](NS(=O)(=O)/C=C/c2ccc(Cl)s2)C1=O [GW813893] and give its measured clearance.
Result: 8

###

The following compounds are shown together with reported bioavailability values.
assay: Oral bioavailability in Sprague-Dawley rat; format: ADME, organism-based; conditions: in vivo
Report the value in % with no unit label.

Problem: Consider the compound C[C@@H](C(=O)N1CCOCC1)N1CC[C@H](NS(=O)(=O)CCc2ccc(Cl)s2)C1=O and give its measured bioavailability.
Result: 31

Problem: Same read-out for C/C(=C\S(=O)(=O)N[C@H]1CCN([C@@H](C)C(=O)N2CCOCC2)C1=O)c1ccc(Cl)s1 ?
Result: 32
